src = paper PMC4889062

pEC50 reference
experimental_system: BNGR-A24 (Bombyx mori)
Sequence (B3XXN7 1-391): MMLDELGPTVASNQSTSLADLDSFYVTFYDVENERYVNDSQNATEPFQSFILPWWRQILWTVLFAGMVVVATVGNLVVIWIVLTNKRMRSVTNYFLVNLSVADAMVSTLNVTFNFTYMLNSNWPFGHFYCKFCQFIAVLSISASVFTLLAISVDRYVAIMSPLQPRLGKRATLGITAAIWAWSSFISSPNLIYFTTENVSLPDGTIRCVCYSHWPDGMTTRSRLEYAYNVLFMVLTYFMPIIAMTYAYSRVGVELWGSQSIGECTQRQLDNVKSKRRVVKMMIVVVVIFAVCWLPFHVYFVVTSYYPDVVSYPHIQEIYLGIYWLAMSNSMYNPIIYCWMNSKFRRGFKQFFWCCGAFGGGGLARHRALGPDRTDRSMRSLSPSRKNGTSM
experimental_protocol: cell-based
Peptide text beside a SMILES is read from it.
pEC50 here is simply -log10 of the concentration when that concentration is written in mol/L.

{"compound": "CSCC[C@H](NC(=O)[C@H](CC(N)=O)NC(=O)[C@H](C)NC(=O)[C@H](C)N)C(=O)N[C@@H](Cc1c[nH]cn1)C(=O)N[C@@H](CCC(N)=O)C(=O)N[C@@H](Cc1ccccc1)C(=O)N[C@@H](Cc1ccc(O)cc1)C(=O)NCC(=O)N[C@H](C(=O)N[C@@H](CCCNC(=N)N)C(N)=O)C(C)C [TK-3] (H-AANMHQFYGVR-NH2; N-terminus assumed)", "experimental_system": "BNGR-A24 (Bombyx mori)", "pEC50": 9.10}
{"compound": "CC[C@H](C)[C@H](N)C(=O)N1CCC[C@H]1C(=O)N[C@@H](CCC(N)=O)C(=O)NCC(=O)N[C@@H](Cc1ccccc1)C(=O)N[C@@H](CC(C)C)C(=O)NCC(=O)N[C@@H](CCSC)C(=O)N[C@@H](CCCNC(=N)N)C(N)=O [TK-1] (H-IPQGFLGMR-NH2; N-terminus assumed)", "experimental_system": "BNGR-A24 (Bombyx mori)", "pEC50": 8.15}
{"compound": "CC[C@H](C)[C@H](NC(=O)[C@H](Cc1ccccc1)NC(=O)[C@H](CCCCN)NC(=O)CNC(=O)[C@H](CCCNC(=N)N)NC(=O)[C@@H](NC(=O)[C@H](CO)NC(=O)[C@H](CC(C)C)NC(=O)[C@H](CC(=O)O)NC(=O)[C@H](Cc1ccc(O)cc1)NC(=O)[C@@H]1CCCN1)[C@@H](C)CC)C(=O)NCC(=O)N[C@H](C(=O)N[C@@H](CCCNC(=N)N)C(N)=O)C(C)C [TK-4] (H-PYDLSIRGKFIGVR-NH2; N-terminus assumed)", "experimental_system": "BNGR-A24 (Bombyx mori)", "pEC50": 9.57}

Consider now this further compound.
The reported value for CSCC[C@H](NC(=O)CNC(=O)[C@H](Cc1ccccc1)NC(=O)[C@H](Cc1ccccc1)NC(=O)CNC(=O)[C@H](CCSC)NC(=O)[C@H](CCC(N)=O)NC(=O)CN)C(=O)N[C@@H](CCCNC(=N)N)C(N)=O [TK-5] (H-GQMGFFGMR-NH2) in terms of pEC50 is 8.64
